assay-text: Solubility in PBS
Assay type: physicochemical
Listed here: items and their measured Solubility.
Give the number; µM is assumed, so skip it.

These recorded examples may help you get a feel for the data.
[
  {
    "compound": "CC(=O)N1CCC[C@]12CC=CCCCC1(CCCC=CCCCOC(=O)N3CC[C@@](C(=O)N[C@@H](Cc4ccccc4Cl)C(=O)N[C@@H](Cc4csc5ccccc45)C(=O)N[C@@H](C(N)=O)[C@H](C)O)(C3)NC(=O)[C@H](CC(C)C)NC(=O)[C@H](Cc3ccccc3)NC(=O)[C@H](C)NC(=O)[C@H](C)NC(=O)[C@H](CC(=O)O)NC(=O)[C@H](CC(=O)O)NC1=O)NC(=O)[C@H](CC1CCCCC1)NC(=O)[C@H](CC(=O)O)NC2=O (stereo partly drawn)",
    "Solubility (µM)": 10
  },
  {
    "compound": "CC(=O)N1CCC[C@]12CC=CCCCC1(CCCC=CCCCOC(=O)N3CC[C@@](C(=O)N[C@@H](Cc4ccccc4Cl)C(=O)N[C@@H](Cc4csc5ccccc45)C(=O)N[C@@H](CCC(N)=O)C(N)=O)(C3)NC(=O)[C@H]([C@@H](C)O)NC(=O)[C@H](Cc3ccccc3)NC(=O)[C@H](C)NC(=O)[C@H](C)NC(=O)[C@H]([C@@H](C)O)NC(=O)[C@H](CC(=O)O)NC1=O)NC(=O)[C@H](CC(C)(C)C)NC(=O)[C@H](CC(=O)O)NC2=O (stereo partly drawn)",
    "Solubility (µM)": 10
  }
]

Alright, here's another compound for you.
What measured Solubility goes with CC(=O)N1CCC[C@]12CC=CCCCC1(CCCC=CCCCOC(=O)N3CC[C@@](C(=O)N[C@@H](Cc4ccccc4Cl)C(=O)N[C@@H](Cc4csc5ccccc45)C(=O)N[C@@H](CC(C)C)C(N)=O)(C3)NC(=O)[C@H](CCCCNC(C)C)NC(=O)[C@H](Cc3ccccc3)NC(=O)[C@H](C)NC(=O)[C@H](C)NC(=O)[C@H](CC(=O)O)NC(=O)[C@H](CC(=O)O)NC1=O)NC(=O)[C@H](CC(C)(C)C)NC(=O)[C@H](CC(=O)O)NC2=O (stereo partly drawn) ?
10
